tested on: Human alphaherpesvirus 2; test: Antiviral activity against Herpes simplex virus 2 isolate 19 harboring G39E, +2G 439-440 = Stop 184 mutations in thymidine kinase and A9T, P15S, L60P, del, DGDE683-686 mutations in DNA polymerase infected in african green monkey Vero cells by plaque reduction assay; assay type: functional, organism-based; conditions: Human alphaherpesvirus 2, isolate 19, Vero
pEC50: −log10 of the molar value.
Please respond with reported pEC50 for every item in the list.

Task item: Using known records, supply pEC50 for Nc1nc2c(ncn2COCCO)c(=O)[nH]1 [ACYCLOVIR]
Reply: < 4.30

Task item: Provide measured pEC50 value, entry: O=C(O)P(=O)(O)O [FOSCARNET]
Reply: > 4.18

###

tested on: Human alphaherpesvirus 2; test: Antiviral activity against Herpes simplex virus 2 isolate 20 harboring G39E, -1C 467 = Stop 183 mutations in thymidine kinase and A9T, P15S, L60P, E139K, T801P mutations in DNA polymerase infected in african green monkey Vero cells by plaque reduction assay; type: functional, organism-based; settings: Human alphaherpesvirus 2, isolate 20, Vero
Please provide measured EC50 for the entries that follow.

Task item: Indicate the recorded EC50 value for this compound: O=C(O)P(=O)(O)O
Reply: < 66 µM

Task item: Quote EC50 reported for Nc1nc2c(ncn2COCCO)c(=O)[nH]1 please.
Reply: > 50 µM

###

system: Human alphaherpesvirus 2; assay: Antiviral activity against Herpes simplex virus 2 isolate 23 harboring G39E, N78D, L140F, +1G 439-440 = Stop 229 mutations in thymidine kinase and A9T, P15S, L60P, I291V mutations in DNA polymerase infected in african green monkey Vero cells by plaque reduction assay; type: functional, organism-based; conditions: Human alphaherpesvirus 2, isolate 23, Vero
pEC50: −log10 of the molar value.
Answer each item with its documented pEC50.

Task item: // fetch pEC50; item: Nc1nc2c(ncn2COCCO)c(=O)[nH]1 ; system: Human alphaherpesvirus 2
Reply: < 4.30

Task item: # assay system Human alphaherpesvirus 2: give pEC50 of O=C(O)P(=O)(O)O
Reply: > 4.18
